# System: NCI-H358 cells
# test_summary: NCI-H358 CTG proliferation assay (120 h) (NSCLC, G12C)
# Type: cell-based
# setup_conditions: Homo sapiens, assay 1, read-out: H358 (assay 1) IC50
measure_name: IC50 (nM)
Numbers only, in nM.

Hey, quick one: what's IC50 for each of these?
1. Cc1ncsc1-c1ccc([C@H](CCO)NC(=O)[C@@H]2C[C@@H](O)CN2C(=O)[C@H](C(C)C)n2cc(OCCCCN3CCCN(c4nccc(-c5noc([C@@]6(C)CCCc7sc(N)c(C#N)c76)n5)n4)[C@@H](C)C3)nn2)cc1 [I-38]
2. Cc1ncsc1-c1ccc([C@@H](NC(=O)[C@@H]2C[C@@H](O)CN2C(=O)[C@H](C(C)C)n2cc(OCCCCN3CCCN(c4nccc(-c5noc([C@@]6(C)CCCc7sc(N)c(C#N)c76)n5)n4)[C@@H](C)C3)nn2)[C@H](C)O)cc1 (single isomer, unassigned) [I-41]
3. CC(C)c1ccc(CNC(=O)[C@@H]2C[C@@H](O)CN2C(=O)C(c2cc(OCCCCN3CCCN(c4nccc(-c5noc([C@@]6(C)CCCc7sc(N)c(C#N)c76)n5)n4)[C@@H](C)C3)no2)C(C)C)cc1 (stereo partly shown) [I-23]
4. CC(C)C(C(=O)N1C[C@H](O)C[C@H]1C(=O)NCc1ccc(Cl)cc1)c1cc(OCCCCN2CCCN(c3nccc(-c4noc([C@@]5(C)CCCc6sc(N)c(C#N)c65)n4)n3)[C@@H](C)C2)no1 (stereo partly shown) [I-20]

[98.8, 59.6, 1150, 439]
